assay: Quantitative highthroughput screen to assess conditional lethalithy of NOMO1 cells grown in RPMI1640 with untreated serum (RPMI+s) (AID 1963876); details: NOMO1 AML cells in RPMI+serum, CellTiter-Glo viability, 48 h; series mostly up to 45.8 µM; also: nearly all actives have a fitted effect of over 35% in size;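 as to viability: 100% = DMSO wells and 0% = empty wells without cells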
Results filed as inconclusive are left out. Active and inactive are the calls of the source. Calls follow the shape of the dose curve; as a rule, active = well fitted cell-killing curve with a large enough effect; inconclusive = small, poorly fitted or top-dose-only effect; inactive = flat fitted curve, though single readings scatter.
Pick from YES (active), NO (inactive) when you respond.

Answered cases to consult:
compound	group
COc1ccc(CC2=NN3C([C@@H](CCc4ccccc4)[C@@H](C)O)=NC(C)C3C(=O)N2)cc1OC (some centres undefined)	NO
COc1cc2c(Oc3ccc(NC(=O)C4(C(=O)Nc5ccc(F)cc5)CC4)cc3F)ccnc2cc1OCCCN1CCOCC1	YES

Prompt: Test call, this compound: NC1=N[C@H]2[C@H](CS[C@H]2CCCCC(=O)O)N1
Response: NO

Prompt: Test call, this compound: CC1(C)CCC(c2ccc(Cl)cc2)=C(CN2CCN(c3ccc(C(=O)NS(=O)(=O)c4ccc(N[C@H](CCN5CCOCC5)CSc5ccccc5)c(S(=O)(=O)C(F)(F)F)c4)cc3)CC2)C1
Response: YES

Prompt: Test call, this compound: COc1ccc(C2(C#N)CCC(C(=O)O)CC2)cc1OC1CCCC1 (centres undefined)
Response: NO

Prompt: Test call, this compound: CC1CCN(c2cc(N3CCN(C)CC3)ccc2NC(=O)c2cc(C#N)c[nH]2)CC1
Response: NO

Prompt: Test call, this compound: CCC(C)(C)c1ccc(CC(C)CN2C[C@@H](C)O[C@@H](C)C2)cc1 (some centres undefined)
Response: NO

Prompt: Test call, this compound: CCCCc1ccc(NS(=O)(=O)c2ccc(C)c(C(=O)N3CCN(c4cccc(C)c4C)CC3)c2)cc1
Response: NO

Prompt: Test call, this compound: COc1ccnc(CS(=O)c2nc3ccc(OC(F)F)cc3[nH]2)c1OC (centres undefined)
Response: NO

###

test: Viability qHTS for spleen associated tyrosine kinase inhibitor (SYKi) drug resistant MV4-11 cells (AID 1963824); details: SYKi-resistant MV4-11 viability, CellTiter-Glo, 72 h; series mostly up to 45 µM; also: nearly all actives have a fitted effect of over 35% in size
Inconclusive results are not listed. Calls of active or inactive are those of the source. Calls follow the shape of the dose curve; as a rule, active = well fitted cell-killing curve with a large enough effect; inconclusive = small, poorly fitted or top-dose-only effect, or effect the other way; inactive = no such curve, though single readings can be large or run the other way.
recorded_metric: viability, % of control

Here's what some known entries look like.
molecule	viability, % of control
C/C=C(\C)C(=O)OC[C@H]1O[C@H](O[C@H]2O[C@H](CO)[C@@H](OC(=O)/C(C)=C/C)[C@H](O)[C@H]2O[C@@H]2O[C@H](CO)[C@@H](O)[C@H](O)[C@H]2O)[C@H](O[C@@H]2O[C@H](CO)[C@@H](O)[C@H](O)[C@H]2O)[C@@H](O)[C@@H]1O	92.1% [at 9.25 µM] (inactive)
C[C@@H]1O[C@@H](O[C@H]2[C@H](O)[C@@H](C(=O)O)O[C@@H](O[C@H]3CC[C@@]4(C)C(CC[C@]5(C)C4CC=C4C6CC(C)(C)CC[C@]6(C(=O)O)CC[C@]45C)C3(C)C)[C@@H]2O[C@@H]2OC[C@@H](O)[C@H](O)[C@H]2O)[C@H](O)[C@H](O)[C@H]1O (some centres undefined)	92.4% [at 9.25 µM] (inactive)
CC1OC(O[C@H]2CC[C@@]3(C)C(CC[C@]4(C)C3CC=C3C5CC(C)(C)CC[C@]5(C(=O)OC5OC(CO)C(OC6OCC(OC7OCC(O)C(O)C7O)C(O)C6O)C(O)C5O)CC[C@]34C)C2(C)C)C(O)C(O)C1OC1OC(CO)C(O)C(OC2OC(CO)C(O)C(O)C2O)C1O (some centres undefined)	62.2% [at 9.25 µM] (inactive)

Prompt: If you can, please state the reported viability, % of control value of CC1(C)CC[C@]2(C(=O)O)CC[C@]3(C)C(=CCC4[C@@]5(C)CC[C@H](O[C@@H]6O[C@H](C(=O)O)[C@@H](O)[C@H](O[C@@H]7O[C@H](CO)[C@H](O)[C@H](O)[C@H]7O)[C@H]6O[C@@H]6O[C@H](CO)[C@@H](O)[C@H](O)[C@H]6O)C(C)(C)C5CC[C@]43C)[C@@H]2C1 (some centres undefined) .
Response: 75.1% [at 4.97 µM] (inactive)
